Target: Macaca fascicularis PRLR (mfPRLR.mmh; SEQ ID NO:403)
Sequence (as listed by the source): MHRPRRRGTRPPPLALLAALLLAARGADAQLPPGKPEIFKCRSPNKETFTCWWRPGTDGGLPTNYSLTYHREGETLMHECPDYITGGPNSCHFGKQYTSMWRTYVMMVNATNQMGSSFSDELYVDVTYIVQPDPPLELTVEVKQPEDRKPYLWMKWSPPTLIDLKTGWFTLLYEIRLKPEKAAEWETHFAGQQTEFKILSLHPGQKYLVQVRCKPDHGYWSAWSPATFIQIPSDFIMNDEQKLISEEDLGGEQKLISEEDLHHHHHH
Experiment: Surface plasmon resonance (Biacore T200), antibody-capture format
Assay type: binding
Conditions: 37° C., analyte mfPRLR.mmh
Method: Antibodies, expressed as human IgG1 Fc (i.e., “H1H” designations), were captured onto an anti-human Fc sensor surface (mAb-capture format), and soluble monomeric (hPRLR.mmh; SEQ ID NO:401, or Macaca fascicularis (mf) PRLR.mmh; SEQ ID NO:403) or dimeric (hPRLR.mFc; SEQ ID NO:402) PRLR protein was injected over the sensor surface. Measurements were conducted on a T200 Biacore instrument. […]
quantity.kind: kd (s⁻¹)

molecule: H1H6797P: fully human anti-PRLR antibody, human IgG1 Fc; HCVR/LCVR SEQ ID NOs 178/186 (antibody, V domains shown) VH: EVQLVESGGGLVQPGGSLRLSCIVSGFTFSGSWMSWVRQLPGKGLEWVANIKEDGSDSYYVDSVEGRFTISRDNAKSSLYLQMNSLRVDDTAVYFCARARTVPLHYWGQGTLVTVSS VL: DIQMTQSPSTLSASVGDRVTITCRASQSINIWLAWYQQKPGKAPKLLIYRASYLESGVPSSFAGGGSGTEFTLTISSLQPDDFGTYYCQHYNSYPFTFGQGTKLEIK
uom: s⁻¹
reported.measurement: 0.00906
--
molecule: H1H6793P: fully human anti-PRLR antibody, human IgG1 Fc; HCVR/LCVR SEQ ID NOs 146/154 (antibody, V domains shown) VH: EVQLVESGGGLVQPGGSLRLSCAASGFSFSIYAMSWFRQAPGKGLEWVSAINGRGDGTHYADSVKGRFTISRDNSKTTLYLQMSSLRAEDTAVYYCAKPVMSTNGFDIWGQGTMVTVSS VL: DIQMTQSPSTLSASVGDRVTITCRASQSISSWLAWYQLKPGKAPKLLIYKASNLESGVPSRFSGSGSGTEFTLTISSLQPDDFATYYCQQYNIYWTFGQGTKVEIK
uom: s⁻¹
reported.measurement: 0.00107
--
molecule: H1H6790P: fully human anti-PRLR antibody, human IgG1 Fc; HCVR/LCVR SEQ ID NOs 114/122 (antibody, V domains shown) VH: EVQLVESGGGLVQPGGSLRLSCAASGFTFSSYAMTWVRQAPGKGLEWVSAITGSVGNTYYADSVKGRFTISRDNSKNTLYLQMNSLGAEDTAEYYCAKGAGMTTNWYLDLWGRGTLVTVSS VL: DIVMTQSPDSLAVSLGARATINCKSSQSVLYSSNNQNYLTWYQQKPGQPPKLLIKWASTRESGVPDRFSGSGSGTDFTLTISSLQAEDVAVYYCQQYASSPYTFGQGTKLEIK
uom: s⁻¹
reported.measurement: 0.00321
